# TARGET_UNDER_TEST: FimH-CRD (Escherichia coli, UniProt P08191)
# Construct: The first 177 amino acids of the FimH protein; thrombin tag (printed as 'fusion protein with thrombin') (cleaved yes); made in house; host or cells: bacteria (pET21b plasmid)
# Sequence (P08191 22-177): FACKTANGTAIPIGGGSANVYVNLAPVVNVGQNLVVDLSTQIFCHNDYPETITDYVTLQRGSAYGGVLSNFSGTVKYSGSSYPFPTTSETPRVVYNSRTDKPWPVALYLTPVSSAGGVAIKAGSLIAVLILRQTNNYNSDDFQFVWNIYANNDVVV
# EXPERIMENTAL_PROTOCOL: Competitive binding assay by fluorescence polarization, assay 1 (compounds prepared by manual serial dilution)
Kd strictly under 0.04 µM means rule met; at 0.04 µM or over means rule not met.

Enquiry: Strictly below 0.04 µM: is that where Kd of Cn1nc(C(F)(F)F)cc1-c1cccc([C@H]2O[C@H](CO)[C@@H](O)[C@H](O)[C@@H]2O)c1 sits?
Return: rule met

Enquiry: What about this molecule? Nc1cccc(-c2cccc([C@H]3O[C@H](CO)[C@@H](O)[C@H](O)[C@@H]3O)c2)c1
Return: rule met

Enquiry: What about this molecule? CNC(=O)c1cccc(-c2ccc([C@H]3O[C@H](CO)[C@@H](O)[C@H](O)[C@@H]3O)cc2)c1
Return: rule met

Enquiry: What about this molecule? OC[C@H]1O[C@H](c2cccc(-c3cc(Cl)cc(Cl)c3)c2)[C@@H](O)[C@@H](O)[C@@H]1O
Return: rule met

Enquiry: What about this molecule? Cc1nnc(-c2ccc(C#Cc3ccc([C@H]4O[C@H](CO)[C@@H](O)[C@H](O)[C@@H]4O)cc3)cc2)o1
Return: rule not met

Enquiry: What about this molecule? OC[C@H]1O[C@H](O[C@@H]2[C@H](O)[C@@H](c3cccc(Oc4ccc(F)cc4)c3)O[C@H](CO)[C@H]2O)[C@@H](O)[C@@H](O)[C@@H]1O
Return: rule met

Enquiry: What about this molecule? CCCCNC(=O)c1cccc([C@H]2O[C@H](CO)[C@@H](O)[C@H](O)[C@@H]2O)c1
Return: rule not met

###

# TARGET_UNDER_TEST: FimH-CRD (Escherichia coli, UniProt P08191)
# Construct: The first 177 amino acids of the FimH protein; thrombin tag (printed as 'fusion protein with thrombin') (cleaved yes); made in house; host or cells: bacteria (pET21b plasmid)
# EXPERIMENTAL_PROTOCOL: Competitive binding assay by fluorescence polarization, assay 1 (compounds prepared by manual serial dilution)
Provide the recorded Kd for the entries that follow.
Number in nM, nothing else.

Enquiry: Endpoint output: Kd of N#Cc1ccc(-c2cccc([C@H]3O[C@H](CO)[C@@H](O)[C@H](O)[C@@H]3O)c2)cc1 . Value?
Return: 6.6

Enquiry: What about this compound? O=C(Nc1cccs1)Oc1cccc([C@H]2O[C@H](CO)[C@@H](O)[C@H](O)[C@@H]2O)c1
Return: 13.1

Enquiry: What about this compound? Cc1nnc(-c2ccc(Oc3cccc([C@H]4O[C@H](CO)[C@@H](O)[C@H](O)[C@@H]4O)c3)cc2)o1
Return: 8.7

Enquiry: What about this compound? Cn1cnc2ccc(-c3cccc([C@H]4O[C@H](CO)[C@@H](O)[C@H](O[C@H]5O[C@H](CO)[C@@H](O)[C@H](O)[C@@H]5O)[C@@H]4O)c3)cc21
Return: 18.1

Enquiry: What about this compound? OC[C@H]1O[C@H](c2cc(O)ccc2Cl)[C@@H](O)[C@@H](O)[C@@H]1O
Return: 22.1

Enquiry: What about this compound? Cn1cnc2ccc(-c3cccc([C@H]4O[C@H](CO)[C@@H](O)[C@H](O)[C@@H]4O)c3)cc21
Return: 5.1

Enquiry: What about this compound? COc1ccc([C@H]2O[C@H](CO)[C@@H](O)[C@H](O)[C@@H]2O)cc1-c1ccc(-c2nnc(C)o2)cc1
Return: 6.9

Enquiry: What about this compound? O=C(Nc1nc2ccc(Cl)cc2s1)c1cccc([C@H]2O[C@H](CO)[C@@H](O)[C@H](O)[C@@H]2O)c1
Return: 9.8

Enquiry: What about this compound? COC(=O)Cc1cccc(-c2cccc([C@H]3O[C@H](CO)[C@@H](O)[C@H](O)[C@@H]3O)c2)c1
Return: 5.2

Enquiry: What about this compound? O=C(Nc1ccccc1)c1cccc([C@H]2O[C@H](CO)[C@@H](O)[C@H](O)[C@@H]2O)c1
Return: 38.4

Enquiry: What about this compound? CNC(=O)c1ccc(Oc2cccc([C@H]3O[C@H](CO)[C@@H](O)[C@H](O)[C@@H]3O)c2)cc1
Return: 7.2

Enquiry: What about this compound? CNS(=O)(=O)c1cccc(-c2cccc([C@H]3O[C@H](CO)[C@@H](O)[C@H](O)[C@@H]3O)c2)c1
Return: 10.7

Enquiry: What about this compound? CNC(=O)c1ccc(-c2cccc([C@H]3O[C@H](CO)[C@@H](O)[C@H](O[C@H]4O[C@H](CO)[C@@H](O)[C@H](O)[C@@H]4O)[C@@H]3O)c2)cc1
Return: 26.8

###

# TARGET_UNDER_TEST: FimH-CRD (Escherichia coli, UniProt P08191)
# Construct: The first 177 amino acids of the FimH protein; thrombin tag (printed as 'fusion protein with thrombin') (cleaved yes)
# EXPERIMENTAL_PROTOCOL: Competitive binding assay by fluorescence polarization, assay 1 (compounds prepared by manual serial dilution)
IC50 strictly under 100 nM means satisfied; at 100 nM or over means not satisfied.

Enquiry: Strictly below 100 nM: is that where IC50 of O=C(Nc1ccc(F)cc1)Oc1cccc([C@H]2O[C@H](CO)[C@@H](O)[C@H](O)[C@@H]2O)c1 sits?
Return: satisfied

Enquiry: What about this compound? COc1cccc([C@H]2O[C@H](CO)[C@@H](O)[C@H](O)[C@@H]2O)c1
Return: not satisfied

Enquiry: What about this compound? O=C(NCc1ccccc1)c1cccc([C@H]2O[C@H](CO)[C@@H](O)[C@H](O)[C@@H]2O)c1
Return: satisfied

Enquiry: What about this compound? Cc1nnc(-c2ccc(-c3cccc([C@H]4O[C@H](CO)[C@@H](O)[C@H](O)[C@@H]4O)c3)cc2)o1
Return: satisfied

###

# TARGET_UNDER_TEST: FimH-CRD (Escherichia coli)
# Construct: The first 177 amino acids of the FimH protein; thrombin tag (printed as 'fusion protein with thrombin') (cleaved yes)
# EXPERIMENTAL_PROTOCOL: Competitive binding assay by fluorescence polarization, assay 1 (compounds prepared by manual serial dilution)
Provide the recorded IC50 for the entries that follow.
Number in nM, nothing else.

Enquiry: Endpoint output: IC50 of O=C(Nc1ccc2ccccc2c1)c1cccc([C@H]2O[C@H](CO)[C@@H](O)[C@H](O)[C@@H]2O)c1 . Value?
Return: 45

Enquiry: What about this compound? Cc1nnc(-c2ccc(Oc3cccc([C@H]4O[C@H](CO)[C@@H](O)[C@H](O)[C@@H]4O)c3)cc2)o1
Return: 31

Enquiry: What about this compound? OC[C@H]1O[C@H](O[C@H]2[C@H](O)[C@@H](CO)O[C@H](C/C=C/C3CCCCC3)[C@H]2O)[C@@H](O)[C@@H](O)[C@@H]1O
Return: 212

Enquiry: What about this compound? N#Cc1ccc(-c2cccc([C@H]3O[C@H](CO)[C@@H](O)[C@H](O)[C@@H]3O)c2)cc1
Return: 49

Enquiry: What about this compound? OC[C@H]1O[C@H](O[C@@H]2[C@H](O)[C@@H](c3cccc(OCCF)c3)O[C@H](CO)[C@H]2O)[C@@H](O)[C@@H](O)[C@@H]1O
Return: 107

Enquiry: What about this compound? COC(=O)c1ccc(Oc2ccc([C@H]3O[C@H](CO)[C@@H](O)[C@H](O)[C@@H]3O)cc2)cc1
Return: 16

Enquiry: What about this compound? OC[C@H]1O[C@H](c2cccc(-c3ccc4cc(O)ccc4c3)c2)[C@@H](O)[C@@H](O)[C@@H]1O
Return: 48

Enquiry: What about this compound? OC[C@H]1O[C@H](c2cccc(F)c2)[C@@H](O)[C@@H](O)[C@@H]1O
Return: 163

Enquiry: What about this compound? COC(=O)c1ccc(CCC[C@H]2O[C@H](CO)[C@@H](O)[C@H](O[C@H]3O[C@H](CO)[C@@H](O)[C@H](O)[C@@H]3O)[C@@H]2O)cc1
Return: 27

Enquiry: What about this compound? CNS(=O)(=O)c1cccc(-c2cccc([C@H]3O[C@H](CO)[C@@H](O)[C@H](O)[C@@H]3O)c2)c1
Return: 39

Enquiry: What about this compound? CNC(=O)c1cccc(Oc2ccc([C@H]3O[C@H](CO)[C@@H](O)[C@H](O[C@H]4O[C@H](CO)[C@@H](O)[C@H](O)[C@@H]4O)[C@@H]3O)cc2)c1
Return: 77

Enquiry: What about this compound? CNC(=O)c1ccc(Oc2cccc([C@H]3O[C@H](CO)[C@@H](O)[C@H](O[C@H]4O[C@H](CO)[C@@H](O)[C@H](O)[C@@H]4O)[C@@H]3O)c2)cc1
Return: 68

Enquiry: What about this compound? OC[C@H]1O[C@H](c2cccc(-c3ccccc3)c2)[C@@H](O)[C@@H](O)[C@@H]1O
Return: 64
